So I've got a bunch of compounds here, and I need their pIC50 values.
Test system: CEM cells HIV-1 protection, formazan growth assay
Assay: NCI AIDS Antiviral Assay
Conditions: measured here: growth of uninfected CEM cells
pIC50: −log10 of the molar value.

What measured pIC50 goes with COC(=O)c1ccccc1/C=C1\Cc2ccc3c(c2C1=O)CCCC3 ? < 3.70

Returns the measured pIC50 for the input compound. Input: O=c1ccn([C@@H]2O[C@@H]3COC(c4c(F)cccc4Cl)N(O)[C@@H]3C2O)c(=O)[nH]1 (some centres undefined) < 3.70

For the compound shown here, c1ccc(Cn2c(-c3ccc(-c4ccccc4)cc3)cc3ccccc32)cc1 , give the reported pIC50. < 4.00

Quick one: pIC50 of CCO/C=C1\N=C(c2ccccc2Br)OC1=O ? < 3.50

###

Tested on: CEM cells HIV-1 protection, formazan growth assay
Experiment: NCI AIDS Antiviral Assay
property.name: EC50

Observed EC50 on CEM cells HIV-1 protection, formazan growth assay for Nc1ncc(C=O)c(NCC2(CO)CCC2)n1 , please. > 200 µM

I'm curious: which EC50 was measured for Cc1cc2oc(-c3ccccc3)c(C)c(=O)c2c2c1OC(C)(C)S2 tested on CEM cells HIV-1 protection, formazan growth assay? > 39.8 µM

Can you look up EC50 on CEM cells HIV-1 protection, formazan growth assay for S=C1C(CCCOCc2ccccc2)C2CCCC23CC2(CCN13)OCCS2 (stereo unspecified) ? > 200 µM

Any idea what EC50 came out for Nc1nc2c(c(=O)[nH]1)CNC2=O on CEM cells HIV-1 protection, formazan growth assay? > 200 µM

Recorded EC50 for C/C(=N/NC(=S)Nc1ccccc1Cl)c1cccc(/C(C)=N\NC(=S)Nc2ccccc2Cl)n1 with CEM cells HIV-1 protection, formazan growth assay, please? > 200 µM

Give the reported EC50 for NC(N)=NCCC(O)(P(=O)(O)O)P(=O)(O)O (system: CEM cells HIV-1 protection, formazan growth assay). > 200 µM

What reported EC50 corresponds to CC(C)CCCC(C)C1CCC2C3CCC4CC5(CCC4(C)C3CCC12C)NCCCS5 (stereo unspecified) on CEM cells HIV-1 protection, formazan growth assay? > 1.58 µM

Recall the recorded EC50 for COc1cc(C(=O)C/C(CCCC(=O)Nc2ccccc2[N+](=O)[O-])=N/NC(=O)c2cc3ccccc3cc2O)ccc1O with CEM cells HIV-1 protection, formazan growth assay and state it. > 32.4 µM

State its EC50 on CEM cells HIV-1 protection, formazan growth assay: CCOC1c2cc(OC)c(OC)cc2-c2ccc3ccccc3c2N1C (stereo unspecified) > 74.1 µM

Please tell me: EC50 of CCOC(=O)NC(=O)c1cn(CCCOC(=O)NCCCCCCNC(=O)OCCCn2c(=O)c(C(=O)NC(=O)OCC)cn(C)c2=O)c(=O)n(C)c1=O , system CEM cells HIV-1 protection, formazan growth assay? > 33.9 µM

Give the reported EC50 for CC(Oc1ccc(OCC2CCCCC2)cc1)C(=O)NCCO (stereo unspecified) (system: CEM cells HIV-1 protection, formazan growth assay). > 295 µM

###

Tested on: CEM cells HIV-1 protection, formazan growth assay
Test: NCI AIDS Antiviral Assay
Conditions: measured here: growth of uninfected CEM cells
property.name: log10(IC50) (log10 of the value in µM)
Record value = log10 of IC50 given in µM.

What value of measured log10(IC50) is listed for N#Cc1c(-c2ccccc2)cn2c1[nH]c(=O)c1ccccc12 ? 1.48

Endpoint output: log10(IC50) of NC(N)=NS(=O)(=O)c1ccc(Nc2c3ccccc3nc3c(C(=O)NC(CO)(CO)CO)cccc23)cc1 . Value? 0.52

Param item = C#CCOC(=O)c1ccccc1OC(C)=O.[C-]#[O+].[C-]#[O+].[C-]#[O+].[C-]#[O+].[C-]#[O+].[C-]#[O+].[Co].[Co] ; retrieve measured log10(IC50). 0.97

If you can, please state the reported log10(IC50) value of Cc1nn(C(=O)c2ccccc2O)c2c1C(c1ccccc1O)SC(N)=N2 (configuration not stated) . -0.03

What value of log10(IC50) has been reported for the following compound? C=C1CC[C@@H]2C(C)(C)C(O)CCC2(C)C1COc1ccc2ccc(=O)oc2c1 (some centres not stated) 1.56

Which log10(IC50) is reported for this compound? Nc1nc(Cl)c(C=O)c(NCC2(CO)CC(CCc3ccccc3)C2)n1 (configuration not stated) 0.60

Look up log10(IC50): CC[N+]1(C)CCC(O)(/C=C/c2ccc(Cl)c(Cl)c2)C(C(=O)/C=C/c2ccc(Cl)c(Cl)c2)C1 (configuration not stated) 0.58

Reported log10(IC50), compound COc1ccc(OC)c(CCc2cc(OC)ccc2OC)c1 : ____ 0.10

Looking for the measured log10(IC50) of COc1cc2c(c(OC)c1OC)-c1ccc(SC)c(=O)cc1C(NC(=O)c1ccccc1)CC2 (configuration not stated) , can you help? -3.15

Record request: log10(IC50) value, item O=C1NC(=S)N/C1=C\c1ccccc1 2.25

Would you kindly share the measured log10(IC50) for CC(C)=CCC[C@@H](C)c1c(O)c(O)c(C)c2nccnc12 ? 1.58

# log10(IC50) lookup, item COc1ccc(NS(=O)c2c(C)cc(C)cc2C)cc1 (configuration not stated) 1.08

// returns reported log10(IC50) for input S=C(N/N=C/c1ccccn1)N1CCCCC1 -1.96

###

System: CEM cells HIV-1 protection, formazan growth assay
Test: NCI AIDS Antiviral Assay
Details: measured here: growth of uninfected CEM cells
property.name: IC50

Item under review: COP1(=S)OCC2OC(n3cc(C)c(=O)[nH]c3=O)CC2O1 (centres undefined) . Reported IC50? > 100 µM

Request the reported IC50 associated with CC(C)(C)c1cc(-c2ccc(-c3cc(C(C)(C)C)c(O)c(C(C)(C)C)c3)cc2)cc(C(C)(C)C)c1O > 100 µM

Give the measured IC50 of CC1=C(C(=O)NCC(C)O)CC(C(=O)NCC(C)O)=C(C)N1 (centres undefined) . > 200 µM

For Brc1ccccc1C=NC12CC3CC(CC(C3)C1)C2 , what is its reported IC50? > 22.9 µM

Fill blank: measured IC50 of the molecule Cc1ccccc1NC(=O)/C(=N/NC(=O)CC#N)C1C(=O)N(c2ccccc2)N=C1N (centres undefined) is ____. > 12.6 µM

// lookup IC50 for Nc1nc2c3nc(Nc4ccccc4)sc3nc(=S)n2c2sc(Nc3ccccc3)nc12 > 11 µM

Returns the measured IC50 for the input molecule. Input: Clc1cc(OCC23CC4CC(CC(C4)C2)C3)nc(OCC23CC4CC(CC(C4)C2)C3)n1 > 100 µM

// returns reported IC50 for input Cc1cc(C)nc(NS(=O)(=O)c2ccc(NC(=O)c3ccc(Cl)c4c(Nc5ccc(S(=O)(=O)Nc6cc(C)on6)cc5)c5ccccc5nc34)cc2)n1 > 46.8 µM

Any idea what IC50 was measured for CCOP(=O)(OCC)/C(C#N)=C/c1ccoc1 ? > 977 µM

Could you tell me which IC50 is on file for CS(=O)(=O)OCCN1CCN(C(=O)c2ccc(Cl)c3c(Nc4ccc(S(=O)(=O)N=C(N)N)cc4)c4ccccc4nc23)CC1 ? > 33.9 µM

Form field: reported IC50 of O=[N+]([O-])c1ccc(Oc2ccc(S(=O)(=O)c3ccc(Oc4ccc([N+](=O)[O-])cc4)c([N+](=O)[O-])c3)cc2[N+](=O)[O-])cc1 > 200 µM

I'd like to know its IC50. The molecule in question is CCOC(=O)C(C#N)C(C)CC (centres undefined) > 200 µM

Which value of IC50 has been reported for CCOc1ccncc1[N+](=O)[O-] in the records? > 200 µM

May I ask what IC50 has been recorded for CCc1cc2c(=O)[nH]c(-c3cccnc3)nc2s1 ? > 200 µM

# query: IC50 of entry O=C(CSc1nc2[nH]ncc2c(=O)[nH]1)c1ccc(Cl)cc1 > 200 µM

// query IC50 value for entry NNC(=O)NNC(=O)NN > 200 µM

State the recorded IC50 for this entry: CCNc1nc2c(ncn2C2CC(O)C(COP(=O)(O)O)O2)c(=O)[nH]1 (centres undefined) > 100 µM

Could you tell me which IC50 is on file for CC(C)c1ccc(/C=C(\NC(=O)c2ccccc2)c2nc3ccccc3[nH]2)cc1 ? > 49 µM

Please give the measured IC50 for this molecule: O=C(O)c1onc2ccccc12 1000 µM

Can you look up the measured IC50 of Cc1cccc(N=NC2Sc3nc4ccccc4n3C2=O)c1 (centres undefined) for me? > 200 µM

For C1=CC2=CC=CC3c4nc5ccc6ccccc6c5nc4C(=C1)C23 (centres undefined) , what is its reported IC50? > 200 µM

GET /values?readout=IC50&item= O=Cc1cc(O)c(O)c(O)c1-c1c(C=O)cc(O)c(O)c1O 34.7 µM

Value lookup for IC50; key = O=C(N=Nc1ccccc1Br)NNc1ccccc1Br > 100 µM

Looking for the measured IC50 of C1=C2/CC[C@H](Sc3ccccc3)C2C2(CCCCC/1)OCCO2 (some centres undefined) , can you help? 38.9 µM
